All values here come from patent US20170305922A1.

experimental-target: Human CARM1 (PRMT4) (Homo sapiens, UniProt Q86X55)
Construct: Flag-CARM1-His was eluted with 200 ug/ml FLAG peptide in buffer A
Sequence (Q86X55 1-585 isoform Q86X55-1): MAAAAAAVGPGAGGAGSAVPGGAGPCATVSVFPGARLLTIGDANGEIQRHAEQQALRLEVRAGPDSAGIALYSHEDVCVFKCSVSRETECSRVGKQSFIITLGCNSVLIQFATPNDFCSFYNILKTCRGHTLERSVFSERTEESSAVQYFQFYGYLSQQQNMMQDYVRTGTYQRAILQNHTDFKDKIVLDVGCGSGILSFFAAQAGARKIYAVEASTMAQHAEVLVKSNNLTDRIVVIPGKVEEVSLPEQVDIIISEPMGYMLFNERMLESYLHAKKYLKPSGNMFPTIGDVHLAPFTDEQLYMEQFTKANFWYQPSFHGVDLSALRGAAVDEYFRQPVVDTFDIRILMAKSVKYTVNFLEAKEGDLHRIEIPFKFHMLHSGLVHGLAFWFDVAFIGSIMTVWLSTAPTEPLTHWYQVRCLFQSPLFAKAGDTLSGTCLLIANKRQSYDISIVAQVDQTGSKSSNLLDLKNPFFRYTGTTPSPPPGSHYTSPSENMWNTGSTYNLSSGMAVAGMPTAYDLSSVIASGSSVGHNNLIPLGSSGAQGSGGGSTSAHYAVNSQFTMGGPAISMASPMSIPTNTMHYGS
test-protocol: CARM1 enzyme assay on peptide substrates (3H-SAM Flashplate)
applied-conditions: Biochemical assay; CARM1 0.25 nM, 3H-SAM 30 nM, peptide 250 nM; read-out: Biochem IC50
From the text: S-adenosylmethionine (SAM), S-adenosylhomocysteine (SAH), bicine, Tween20, dimethylsulfoxide (DMSO), bovine skin gelatin (BSG), sodium butyrate and Tris(2-carboxyethyl)phosphine hydrochloride solution (TCEP) were purchased from Sigma-Aldrich at the highest level of purity possible. ^3H-SAM was purchase from American Radiolabeled Chemicals with a specific activity of 80 Ci/mmol. 384-well streptavidin Flashplates were purchased from PerkinElmer. […]
In this section we review reported log10 IC50 values for a set of compounds.
The figures below represent log10 of IC50, where IC50 is stated in nM.

// known answers, use as guide
CNC[C@@H](O)COc1ccc(Cl)c(-c2nc(-c3c(C)noc3C)c(C)c(N3CC4(CCN(CC(F)(F)F)CC4)C3)n2)c1 | 1.24
CNC[C@@H](O)COc1ccc(Cl)c(-c2nc(-c3c(C)noc3C)c(C)c(N3Cc4cnc(C)cc4[C@@H]3C)n2)c1 | 0.56
CCc1onc(C)c1-c1nc(-c2cc(OC[C@H](O)CNC)ccc2Cl)nc(N2Cc3cnc(N4CCC4)nc3C2)c1C | 0.23

What value of log10 IC50 on Human CARM1 (PRMT4) (Homo sapiens, UniProt Q86X55) does `CNC[C@@H](O)COc1ccc(Cl)c(-c2nc(-c3c(C)noc3C)c(C)c(N3Cc4cnn(CC(=O)N(C)C)c4C3)n2)c1` have?
0.81

Try this compound next: `CNC[C@@H](O)COc1ccc(Cl)c(-c2nc(-c3c(C)noc3C)c(C)c(N3CC4(CCC(SC)CC4)C3)n2)c1`
0.52

Try this compound next: `CNC[C@@H](O)COc1ccc(Cl)c(-c2nc(-c3c(C)noc3C)c(C)c(N3Cc4ccc(OCCOC)nc4C3)n2)c1`
0.30

Try this compound next: `CNC[C@@H](O)COc1ccc(Cl)c(-c2nc(-c3c(C#N)cnn3C)c(C)c(N3Cc4cncnc4C3)n2)c1`
0.89

Try this compound next: `CNC[C@@H](O)COc1ccc(Cl)c(-c2nc(-c3c(C)c(Cl)nn3C)c(C)c(N3CC4(CC(C#N)C4)C3)n2)c1`
0.61

Try this compound next: `CNC[C@@H](O)COc1ccc(Cl)c(-c2nc(-c3c(C)noc3C)c(C)c(N3Cc4cnc(OC)cc4C3)n2)c1`
0.32

Try this compound next: `CNC[C@@H](O)COc1ccc(Cl)c(-c2nc(-c3c(C)noc3C)c(C)c(N3Cc4ccc(Cl)nc4C3)n2)c1`
0.30

Try this compound next: `CNC[C@@H](O)COc1ccc(Cl)c(-c2nc(-c3c(C)c(Cl)nn3C)c(C)c(N3CC4(CN(C(=O)OC)C4)C3)n2)c1`
0.62

Try this compound next: `CNC[C@@H](O)COc1ccc(Cl)c(-c2nc(-c3c(C)c(Cl)nn3C)c(C)c(N3Cc4cnc(OCC(F)F)nc4C3)n2)c1`
0.54

Try this compound next: `CNC[C@@H](O)COc1ccc(Cl)c(-c2nc(-c3c(C)noc3C)c(C)c(N3Cc4cnc(N5CC(OC)C5)nc4C3)n2)c1`
0.45
